- measured_target: T1, recombinant human IL-23 (human, UniProt Q9NPF7 20-189; P29460 23-328)
- T1 construct: also called hIL-23
- T1 sequence 1: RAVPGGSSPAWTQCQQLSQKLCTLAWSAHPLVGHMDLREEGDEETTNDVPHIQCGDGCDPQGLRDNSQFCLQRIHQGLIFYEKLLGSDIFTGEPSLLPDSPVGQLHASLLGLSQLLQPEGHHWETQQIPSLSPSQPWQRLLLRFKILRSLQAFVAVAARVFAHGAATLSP
- T1 sequence 2: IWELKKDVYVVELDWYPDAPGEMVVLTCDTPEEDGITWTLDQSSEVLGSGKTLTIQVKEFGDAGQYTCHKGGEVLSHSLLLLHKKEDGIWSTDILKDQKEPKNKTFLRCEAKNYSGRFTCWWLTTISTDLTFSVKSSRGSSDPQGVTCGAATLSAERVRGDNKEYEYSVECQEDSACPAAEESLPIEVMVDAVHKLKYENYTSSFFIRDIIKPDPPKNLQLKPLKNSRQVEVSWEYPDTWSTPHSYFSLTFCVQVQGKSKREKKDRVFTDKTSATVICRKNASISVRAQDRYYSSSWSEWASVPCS
- assay_name: SPR (Biacore T100), CHO supernatant antibody captured on Protein A or anti-human IgG, IL-23 analyte at 256, 64, 16, 4, 1 nM
measurement_label: kon (M⁻¹ s⁻¹)
Express it in M⁻¹ s⁻¹; write the number only.

Past entries and their recorded results:
binder	kon [M⁻¹ s⁻¹]
A3M1 (antibody, human IgG1, kappa, V domains shown, Full length chains) VH: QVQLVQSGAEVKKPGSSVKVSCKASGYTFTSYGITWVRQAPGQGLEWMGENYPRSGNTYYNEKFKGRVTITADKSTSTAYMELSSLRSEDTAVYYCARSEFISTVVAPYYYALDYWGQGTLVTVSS VL: DIVMTQSPDSLAVSLGERATINCKASKKVTIFGSISALHWYQQKPGQPPKLIYNGAKLESGVSDRFSDSGSQNRSPFGNQLSFTLTISSLQAEDVAVYYCLQNKEVPYTFGGGTKVEIKR	130000
A3N1 (antibody, human IgG1, kappa, V domains shown, Full length chains) VH: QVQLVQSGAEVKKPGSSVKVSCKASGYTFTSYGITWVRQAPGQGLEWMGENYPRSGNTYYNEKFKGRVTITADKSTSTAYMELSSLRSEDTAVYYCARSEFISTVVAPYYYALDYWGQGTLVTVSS VL: DIVMTQTPLSLSVTPGQPASISCKASKKVTIFGSISALHWYLQKPGQPPQLIYNGAKLESGVSDRFSDSGSQNRSPFGNQLSFTLKISRVEAEDVGVYYCLQNKEVPYTFGGGTKVEIKR	84000
A3M0 (antibody, human IgG1, kappa, V domains shown, Full length chains; also called humanized mAb A3M0) VH: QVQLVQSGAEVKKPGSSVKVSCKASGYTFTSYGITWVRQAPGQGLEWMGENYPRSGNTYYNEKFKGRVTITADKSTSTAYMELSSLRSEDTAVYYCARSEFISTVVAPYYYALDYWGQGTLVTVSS VL: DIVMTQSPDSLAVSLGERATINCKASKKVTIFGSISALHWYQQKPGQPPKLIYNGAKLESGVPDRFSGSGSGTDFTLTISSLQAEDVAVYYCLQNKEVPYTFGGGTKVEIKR	300000

Sure, the documented kon for A3N2 (antibody, human IgG1, kappa, V domains shown, Full length chains) VH: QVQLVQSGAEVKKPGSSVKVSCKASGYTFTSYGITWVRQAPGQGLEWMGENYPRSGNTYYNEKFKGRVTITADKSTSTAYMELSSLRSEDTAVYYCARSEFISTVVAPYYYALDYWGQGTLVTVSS VL: DIVMTQTPLSLSVTPGQPASISCKASKKVTIFGSISALHWYLQKPGQPPQLIYNGAKLESGVSDRFSDSGSGTDFTLKISRVEAEDVGVYYCLQNKEVPYTFGGGTKVEIKR is 240000
